Experiment description: Pharmacokinetics of three single doses of sublingual testosterone solution in healthy premenopausal women
Measurement parameters: female, human, in vivo, 0.25 mg, Baseline corrected AUC 0-230, free testosterone, serum; 0.25 mg sublingual; geometric mean (% CV)

Smiles | AUC(0-t), ng·h/mL
C[C@]12CC[C@H]3[C@@H](CCC4=CC(=O)CC[C@@]43C)[C@@H]1CC[C@@H]2O | 0.0158

----------
Experiment description: Pharmacokinetics of three single doses of sublingual testosterone solution in healthy premenopausal women
Measurement parameters: female, human, in vivo, 0.5 mg, Tmax, free testosterone, serum; 0.50 mg sublingual; mean ± SD
Method: All 16 subjects received each investigational drug dose once in random order. Wash-out between treatments was at least 48 h. Subjects had serial blood samples drawn via an intravenous catheter. Pharmacokinetic parameters were monitored at baseline and (at 2, 4, 6, 8, 10, 20, 30, 60, 90, 120, 180, 230 min) after dosing. Blood samples in the placebo condition were only measured at −5, 10, 60 and 230 min. […] The pharmacokinetic parameters were analyzed using the WinNonlin software (version 5.1). […]
Endpoint name: Tmax (min)

Compound | Endpoint name | Unit spec | Value
C[C@]12CC[C@H]3[C@@H](CCC4=CC(=O)CC[C@@]43C)[C@@H]1CC[C@@H]2O [Testosterone, testosterone] | Tmax | min | 14.4
